# Lookup of reported Internalization %, MDA-MB-231, 2 µg/ml, 4 h keyed by entry
Target: T1, human Trop-2 expressed on cell surface (human, UniProt P09758 27-323)
T1 sequence (looked up): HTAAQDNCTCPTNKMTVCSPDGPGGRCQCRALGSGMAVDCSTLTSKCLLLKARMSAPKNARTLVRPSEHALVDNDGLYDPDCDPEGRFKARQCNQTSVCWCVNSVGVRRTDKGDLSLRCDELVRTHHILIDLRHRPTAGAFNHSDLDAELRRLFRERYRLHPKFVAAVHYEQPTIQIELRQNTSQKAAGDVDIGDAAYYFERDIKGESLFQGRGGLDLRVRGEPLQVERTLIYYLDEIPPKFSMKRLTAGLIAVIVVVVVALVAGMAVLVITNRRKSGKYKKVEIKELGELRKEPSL
Assay: cell-based or functional assay
Answer format: numeric, % implied, no suffix.

# binder, unit_abbreviation, meas_value
measured = [
    ("5D4 (antibody, V domains shown, Rabbit-derived clone; LEM construct: VH + rabbit IgG CH1 + human IgG1 CH2-CH3) VH: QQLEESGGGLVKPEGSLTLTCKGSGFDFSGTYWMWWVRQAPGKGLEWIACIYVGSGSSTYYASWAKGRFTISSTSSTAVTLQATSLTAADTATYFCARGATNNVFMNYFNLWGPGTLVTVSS VL: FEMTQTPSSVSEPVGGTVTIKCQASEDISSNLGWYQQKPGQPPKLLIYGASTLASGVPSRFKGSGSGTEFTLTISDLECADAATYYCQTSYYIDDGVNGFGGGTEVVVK", "%", 66),
    ("66A1 (antibody, V domains shown, Rabbit-derived clone; LEM construct: VH + rabbit IgG CH1 + human IgG1 CH2-CH3) VH: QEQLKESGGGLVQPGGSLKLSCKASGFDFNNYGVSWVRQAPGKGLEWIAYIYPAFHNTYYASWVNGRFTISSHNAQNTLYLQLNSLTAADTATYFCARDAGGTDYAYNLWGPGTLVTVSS VL: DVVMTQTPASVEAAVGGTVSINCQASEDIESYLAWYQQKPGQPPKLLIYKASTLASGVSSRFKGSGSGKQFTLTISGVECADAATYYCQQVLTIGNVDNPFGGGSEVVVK", "%", 43),
    ("9D7-2 (antibody, V domains shown) VH: QSLEESGGDLVQPGASLTLTCKASGFDLNNYSILWVRQAPGKGLEWIGSIYISGGSTYYANWAKGRFAISKTSSTTVTLQMTSLTAADTATYFCARDDGTASYYLNLWGPGTLVTVSS VL: YDMTQTPASVSEPVGGTVTIKCQASEDIYKLLAWYQQKPGQPPKLLIYAASDLESGVPSRFKGRGSGTDYTLTISDLEAADAATYYCQQAYTIGNIDNSFGGGTEVVVK", "%", 59),
]

Task: Data request, read-out Internalization %, MDA-MB-231, 2 µg/ml, 4 h, for 9F7 (antibody, V domains shown, Rabbit-derived clone; LEM construct: VH + rabbit IgG CH1 + human IgG1 CH2-CH3) VH: QEQLKESGGGLVQPGGSLTLSCKASGFDFNNYGVSWVRQAPGKGLEWIGYIYPAYHNTYYATWVNGRFTISSHNAQNTLYLQLNTLTAADTATYFCARDTGSTDYNFNLWGPGTLVTVSS VL: DVVMTQTPASVEVAVGGTVTIKCQASEDIESYLAWYQQKPGQPPKLLIYEASKLASGVSSRFSGGGYGTEFTLTISGVECADAATYYCQQALTVGNVDNPFGGGSEVVVK
Output: 31

Task: Quick one: Internalization %, MDA-MB-231, 2 µg/ml, 4 h for 5D4-1 (antibody, V domains shown) VH: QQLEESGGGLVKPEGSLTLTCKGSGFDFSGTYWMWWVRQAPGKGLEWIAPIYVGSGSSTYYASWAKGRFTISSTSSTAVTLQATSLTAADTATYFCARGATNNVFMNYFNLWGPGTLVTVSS VL: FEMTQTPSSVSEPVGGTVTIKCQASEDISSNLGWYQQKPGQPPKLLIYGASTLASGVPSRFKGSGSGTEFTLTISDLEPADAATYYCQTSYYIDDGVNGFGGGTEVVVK ?
Output: 63
